Test system: Bacillus subtilis
Assay: microbe, parasite or virus in culture
Details: ATCC 6633, 24 h
Description: Antimicrobial activity against Bacillus subtilis ATCC 6633 assessed as inhibition of visible growth after 24 hrs at pH 7.4
Peptide text beside a SMILES is read from it. * marks the point of attachment. Lauroyl = CCCCCCCCCCCC(=O)*
Response field label takes True when MIC is strictly below 300 µM and False in all other cases.

molecule	label
CCCCCCCCCCCC(=O)N[C@@H](CCCNC(=N)N)C(=O)NCCCC[C@H](N)C(=O)OC	True
CCCCCCCCCCCC(=O)N[C@@H](CCCNC(=N)N)C(=O)N[C@@H](CCCCN)C(=O)OC (Lauroyl-Arg-Lys-OMe)	True
CCCCCCCCCCCC(=O)N[C@@H](CCCCN)C(=O)OC	False
CCCCCCCCCCCC(=O)NCCCC[C@H](N)C(=O)NCCCCNCCCNC(=O)[C@@H](N)CCCCNC(=O)CCCCCCCCCCC	True
CCCCCCCCCCCC(=O)NCCCC[C@H](N)C(=O)OC	False
CCCCCCCCCCCC(=O)NCCCC[C@@H](C(=O)NCCCCCCNC(=O)[C@H](CCCCNC(=O)CCCCCCCCCCC)[N+](C)(C)C)[N+](C)(C)C	True
